system name: ACLY (Homo sapiens (Human), UniProt P53396)
Sequence (P53396 whole entry): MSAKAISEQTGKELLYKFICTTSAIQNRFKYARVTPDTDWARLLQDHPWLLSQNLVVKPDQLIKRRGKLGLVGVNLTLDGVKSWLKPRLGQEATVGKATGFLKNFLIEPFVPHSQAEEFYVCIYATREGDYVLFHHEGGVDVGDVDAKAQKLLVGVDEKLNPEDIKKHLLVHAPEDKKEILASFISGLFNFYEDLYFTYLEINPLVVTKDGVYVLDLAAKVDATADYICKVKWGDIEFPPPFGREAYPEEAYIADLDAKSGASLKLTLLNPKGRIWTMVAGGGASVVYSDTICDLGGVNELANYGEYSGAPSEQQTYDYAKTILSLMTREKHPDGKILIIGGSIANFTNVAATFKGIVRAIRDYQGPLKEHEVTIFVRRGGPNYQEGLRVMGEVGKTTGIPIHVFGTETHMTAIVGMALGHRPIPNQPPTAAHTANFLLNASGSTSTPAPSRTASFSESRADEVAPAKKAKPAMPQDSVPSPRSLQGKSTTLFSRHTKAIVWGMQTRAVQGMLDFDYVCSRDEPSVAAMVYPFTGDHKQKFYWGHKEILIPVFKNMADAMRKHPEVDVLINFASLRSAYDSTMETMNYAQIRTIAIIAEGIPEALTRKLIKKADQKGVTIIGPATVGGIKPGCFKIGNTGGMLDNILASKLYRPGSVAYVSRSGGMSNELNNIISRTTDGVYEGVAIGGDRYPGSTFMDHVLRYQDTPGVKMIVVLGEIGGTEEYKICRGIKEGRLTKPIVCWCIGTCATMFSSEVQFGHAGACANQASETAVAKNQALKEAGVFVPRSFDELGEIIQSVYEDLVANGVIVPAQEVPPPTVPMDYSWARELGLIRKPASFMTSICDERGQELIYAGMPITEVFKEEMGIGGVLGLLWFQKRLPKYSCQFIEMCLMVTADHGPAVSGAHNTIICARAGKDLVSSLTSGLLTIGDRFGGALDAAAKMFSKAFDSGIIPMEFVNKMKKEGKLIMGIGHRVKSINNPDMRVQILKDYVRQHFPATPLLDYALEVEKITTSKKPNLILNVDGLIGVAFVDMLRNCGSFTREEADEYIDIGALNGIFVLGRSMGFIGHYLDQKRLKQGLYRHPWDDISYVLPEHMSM
method notes: InCell Pulse assay (permeate HEK293 cells, bind to and stabilize ACLY)
Format: cell-based
protocol conditions: HEK293 cells transfected with pICP-ACLY(FL)-ePL; 1 hour at 37° C., 55° C. heat pulse 10 minutes; read-out: InCell Pulse IC50 GMean
pIC50: −log10 of the molar value.
Provide the reported pIC50 of each item.

Exercise: Please report the measured pIC50 for O=C1OCCc2ccccc2-c2cc(c(F)cc2F)NS(=O)(=O)c2cc1cc(Cl)c2O
Solution: > 6.52

Exercise: Please report the measured pIC50 for O=C1NCCOc2ccccc2-c2cc(c(F)cc2F)NS(=O)(=O)c2cc1cc(Cl)c2O
Solution: 4.30 to 6.00

Exercise: Please report the measured pIC50 for O=C1OCc2ccccc2-c2ccc(F)c(c2)NS(=O)(=O)c2cc1cc(Cl)c2O
Solution: > 6.52

Exercise: Please report the measured pIC50 for O=C1OCCOc2cc(Cl)ccc2-c2cc(c(F)cc2F)NS(=O)(=O)c2cc1cc(Cl)c2O
Solution: 6.00 to 6.52

Exercise: Please report the measured pIC50 for O=C1OCCOc2ccccc2-c2ccc(F)c(c2F)NS(=O)(=O)c2cc1cc(Cl)c2O
Solution: ≤ 4.30

Exercise: Please report the measured pIC50 for O=C1OCCCc2ccccc2-c2cc(c(F)cc2F)NS(=O)(=O)c2cc1cc(Cl)c2O
Solution: > 6.52

Exercise: Please report the measured pIC50 for O=C1OCCOc2cc3cn[nH]c3cc2-c2cc(c(F)cc2F)NS(=O)(=O)c2cc1cc(Cl)c2O
Solution: ≤ 4.30

Exercise: Please report the measured pIC50 for Cn1cc2cc(c1=O)S(=O)(=O)Nc1cc(c(F)cc1F)-c1ccccc1OCCOC2=O
Solution: ≤ 4.30

Exercise: Please report the measured pIC50 for O=C1OCCCc2ccccc2-c2ccc(F)c(c2)NS(=O)(=O)c2cc1cc(Cl)c2O
Solution: > 6.52

Exercise: Please report the measured pIC50 for O=C1OCCOc2ccc(Cl)cc2-c2ccc(F)c(c2)NS(=O)(=O)c2cc1cc(Cl)c2O
Solution: 6.00 to 6.52

Source listed as patent US20250289793A1.
